System: Nucleic Acid
Experiment: Apparent binding constant to poly (dG.dC) DNA was evaluated by measuring the loss of ethidium fluorescence
Assay type: nucleic-acid assay
Binarize K app at 500000 M⁻¹; below is True, at or above is False.

Record excerpt, results attached:
>>> group_label("CN(C)CCNC(=O)c1nc(NC(=O)c2nc(NC(=O)c3ccc(N(CCCl)CCCl)cc3)cn2C)cn1C")
"True"
>>> group_label("CN(C)CCNC(=O)c1nc(NC(=O)c2nc(NC=O)cn2C)cn1C")
"True"
>>> group_label("CN(C)CCNC(=O)c1nc(NC(=O)c2nc(NC(=O)c3nc(NC=O)cn3C)cn2C)cn1C")
"False"
>>> group_label("CN(C)CCNC(=O)c1nc(NC=O)cn1C")
"True"

Then this compound:
Query: Please let me know if "Cn1cc(NC(=O)c2cc(NC(=O)c3cc(NC=O)cn3C)cn2C)cc1C(=O)NCCC(=N)N" shows K app below 500000 M⁻¹.
Response: True

###

Catalogue of molecules with associated K app
System: Nucleic Acid
Assay: Apparent binding constant to poly (dA.dT) DNA was evaluated by measuring the loss of ethidium fluorescence
Assay type: nucleic-acid assay
Use M⁻¹ as the unit, but write only the number.

Worked examples, 5 molecules total:
>>> readout_value("CCBr")
"9.5e+06"
>>> readout_value("CN(C)CCNC(=O)c1nc(NC(=O)c2nc(NC(=O)c3ccc(N(CCCl)CCCl)cc3)cn2C)cn1C")
475000
>>> readout_value("CN(C)CCNC(=O)c1nc(NC(=O)c2nc(NC(=O)c3nc(NC(=O)c4ccc(N(CCCl)CCCl)cc4)cn3C)cn2C)cn1C")
950000
>>> readout_value("Cn1cc(NC(=O)c2cc(NC(=O)c3cc(NC=O)cn3C)cn2C)cc1C(=O)NCCC(=N)N [STALLIMYCIN]")
"3.48e+07"
>>> readout_value("CN(C)CCNC(=O)c1nc(NC(=O)c2nc(NC=O)cn2C)cn1C")
17000

Next, consider the following molecule.
// field: K app; key: "CN(C)CCNC(=O)c1nc(NC(=O)c2nc(NC(=O)c3nc(NC=O)cn3C)cn2C)cn1C" ; value = 594000

###

Quick reference: K app of the listed items.
Species: Bos taurus
Test: Apparent binding constant to calf thymus DNA was evaluated by measuring the loss of ethidium fluorescence
Number only, in M⁻¹; omit the unit.

Solved entries (count: 5):
>>> readout_value("CN(C)CCNC(=O)c1nc(NC(=O)c2nc(NC(=O)c3nc(NC(=O)c4ccc(N(CCCl)CCCl)cc4)cn3C)cn2C)cn1C")
591000
>>> readout_value("CN(C)CCNC(=O)c1nc(NC(=O)c2nc(NC(=O)c3nc(NC=O)cn3C)cn2C)cn1C")
774000
>>> readout_value("Cn1cc(NC(=O)c2cc(NC(=O)c3cc(NC=O)cn3C)cn2C)cc1C(=O)NCCC(=N)N [STALLIMYCIN]")
774000
>>> readout_value("CN(C)CCNC(=O)c1nc(NC=O)cn1C")
25000
>>> readout_value("CN(C)CCNC(=O)c1nc(NC(=O)c2nc(NC=O)cn2C)cn1C")
32000

// switching to the query molecule
Looking up "CN(C)CCNC(=O)c1nc(NC(=O)c2nc(NC(=O)c3ccc(N(CCCl)CCCl)cc3)cn2C)cn1C" , I see its K app listed as 456000
